- Test system: epithelial carcinoma A431 cell line
- protocol-summary: MTT Cell Proliferation Assay, A431 cells
- Type: cell-based
- condition-label: A431 cells, first value of cell
Where a name gives a salt, the structure may show the parent alone.
measurement-label: MTT Assay IC50(A431/MDBK): A431

INSERT INTO assay_data (compound, measurement_label, measured) VALUES
  ('CCOc1cccc2c(C)nc(Nc3nc(-c4ccccc4)cc(=O)[nH]3)nc12 [compound 11492]', 'MTT Assay IC50(A431/MDBK): A431', 'non-convergent'),
  ('Cc1ccc(C2CC(=O)c3cnc(Nc4nc(C)c5cccc(C)c5n4)nc3C2)cc1 (stereo not shown) [11673 + TFA]', 'MTT Assay IC50(A431/MDBK): A431', 'non-convergent'),
  ('COc1ccc(C2CC(=O)c3cnc(Nc4nc(-c5ccccc5)c5ccccc5n4)nc3C2)cc1 (stereo not shown) [11663 + TFA]', 'MTT Assay IC50(A431/MDBK): A431', 'non-convergent');

====

- Tested on: epithelial carcinoma A431 cell line
- protocol-summary: MTT Cell Proliferation Assay, A431 cells
- Assay type: cell-based
- condition-label: Homo sapiens, A-431, A431 cells, first value of cell; read-out: MTT Assay IC50(A431/MDBK): A431
- Excerpt: The following example describes the MTT Cell Proliferation Assay. The MTT Cell Proliferation Assay is a colorimetric assay system that measures the reduction of the tetrazolium salt MTT (3-(4,5-dimethylthiazol-2-yl)-2,5-diphenyltetrazolium bromide) into insoluble formazan crystals, produced by the mitochondria of viable cells. […] The color can then be quantified by spectrophotometric means. […] Plates were read in a Tecan Sunrize UV plate reader, at 560 nm. […]
Counter-ions that a name gives are not always drawn.
In this section we review reported IC50 values for a set of molecules.
Please respond with the number in µM and leave the unit unwritten.

Worked examples follow.
INSERT INTO measurements (molecule, unit, measured) VALUES
  ('COc1ccc(-c2cc(=O)[nH]c(Nc3nc(C)c4ccccc4n3)n2)cc1OC [11471 + TFA]', 'µM', 36.9),
  ('COc1cccc2c(C)nc(Nc3nc(-c4ccc(F)cc4)cc(=O)[nH]3)nc12 [compound 12778]', 'µM', 4.66),
  ('Cc1ccc2nc(Nc3nc4c(c(-c5ccccc5)n3)CCCC4)nc(C)c2c1 [compound 12227]', 'µM', 16.4),
  ('CCCCc1c(C)nc(Nc2nc(C)c3ccc(C)cc3n2)[nH]c1=O [12776 + TFA]', 'µM', 29.7);

Form field: reported IC50 of CCOC(=O)c1c(N)nc(Nc2nc(C)c3cc(C)c(C)cc3n2)nc1-c1ccccc1 [compound 11825] 4.06

====

- target-under-test: EGFR (Homo sapiens)
- Construct: host or cells: A431
- Sequence (P00533 25-1210): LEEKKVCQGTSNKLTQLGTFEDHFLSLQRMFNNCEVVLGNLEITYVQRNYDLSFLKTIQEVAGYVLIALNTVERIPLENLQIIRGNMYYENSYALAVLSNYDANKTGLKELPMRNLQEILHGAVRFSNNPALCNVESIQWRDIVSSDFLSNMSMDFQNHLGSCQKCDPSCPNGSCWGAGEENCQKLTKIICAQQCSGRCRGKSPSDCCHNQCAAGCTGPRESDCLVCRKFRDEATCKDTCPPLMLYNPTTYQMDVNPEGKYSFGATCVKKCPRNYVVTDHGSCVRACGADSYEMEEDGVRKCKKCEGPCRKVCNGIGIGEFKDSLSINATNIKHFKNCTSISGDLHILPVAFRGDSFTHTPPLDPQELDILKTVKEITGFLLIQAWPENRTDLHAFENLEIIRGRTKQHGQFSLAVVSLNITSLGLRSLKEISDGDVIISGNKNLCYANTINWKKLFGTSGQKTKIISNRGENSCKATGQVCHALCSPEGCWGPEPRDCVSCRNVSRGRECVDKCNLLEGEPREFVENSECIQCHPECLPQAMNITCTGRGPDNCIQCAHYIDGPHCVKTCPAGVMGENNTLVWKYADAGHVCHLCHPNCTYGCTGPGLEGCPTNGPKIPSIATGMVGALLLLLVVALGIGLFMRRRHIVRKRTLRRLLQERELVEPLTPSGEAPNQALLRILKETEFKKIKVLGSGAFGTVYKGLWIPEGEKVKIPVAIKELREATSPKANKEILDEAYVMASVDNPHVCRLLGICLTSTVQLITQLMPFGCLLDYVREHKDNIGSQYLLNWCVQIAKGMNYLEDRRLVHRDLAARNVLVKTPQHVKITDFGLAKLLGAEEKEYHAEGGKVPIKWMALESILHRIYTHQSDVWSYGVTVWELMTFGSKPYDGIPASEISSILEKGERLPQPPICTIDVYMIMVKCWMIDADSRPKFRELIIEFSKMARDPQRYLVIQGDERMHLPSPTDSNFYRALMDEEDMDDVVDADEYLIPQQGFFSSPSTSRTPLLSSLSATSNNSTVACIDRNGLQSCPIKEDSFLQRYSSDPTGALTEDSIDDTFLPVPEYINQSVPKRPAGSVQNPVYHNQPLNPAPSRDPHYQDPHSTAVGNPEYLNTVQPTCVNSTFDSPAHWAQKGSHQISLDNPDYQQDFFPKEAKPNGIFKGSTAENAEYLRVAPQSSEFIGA
- protocol-summary: EGFR in-cell Western (ICW) screening protocol (EGFR inhibition assay)
- Type: cell-based
- condition-label: Table 11; % Inhibition of EGF dependent EGFR phosphorylation in A431 cells; compound 125 μM in assay
Listing of entries alongside the reported ICW Screen.
Answer with a number only.

Worked examples, 4 compounds total:
INSERT INTO results (compound, measured) VALUES
  ('CCc1ccc2oc(=O)cc(CN3CCN(CCO)CC3)c2c1', 34.907),
  ('CCc1cc2c(CN3CCN(Cc4ccccc4)CC3)cc(=O)oc2cc1O [AD4-10631]', 104.48),
  ('Cc1c(O)ccc2c(CN3CCN(Cc4ccc5c(c4)OCO5)CC3)cc(=O)oc12 [AD4-10491]', 29.223),
  ('Cc1cc(C)c2c(CN3CCN(Cc4ccc5c(c4)OCO5)CC3)cc(=O)oc2c1', 39.51);

Okay, next one:
Reported ICW Screen for `Cc1cc2oc(=O)cc(CN3CCN(CCO)CC3)c2cc1C` : what is it? 42.066
